- System: MLO-Y4 osteocytes
- Measurement Notes: High-throughput drug screening of primary cilia length and incidence
- Assay type: cell-based
- Measurement Conditions: 10 μM, 16 hours, triplicate; normalized to vehicle control; standard deviation away from the population average
Structures can show the parent of a compound that is named as a salt.
Readout Type: Average Incidence SD Away (SD)

INSERT INTO measurements (compound, measurement_target, reported_value) VALUES
  ('CC(C)NCC(O)COc1ccc(CCOCC2CC2)cc1 (centres unmarked) [Betaxolol hydrochloride (Betoptic), Betaxolol hydrochloride]', 'MLO-Y4 osteocytes', 1.631),
  ('CCCOc1ccc2nc(NC(=O)OC)[nH]c2c1', 'MLO-Y4 osteocytes', 4.084),
  ('CCN(C)C(=O)Oc1cccc([C@H](C)N(C)C)c1 [Rivastigmine tartrate (Exelon), Rivastigmine tartrate]', 'MLO-Y4 osteocytes', 1.664),
  ('CC(NC(C)(C)C)C(=O)c1cccc(Cl)c1 (centres unmarked)', 'MLO-Y4 osteocytes', 1.605),
  ('CN1C(=O)COc2c(C(=O)NC3CN4CCC3CC4)cc(Cl)cc21 (centres unmarked) [Azasetron HCl]', 'MLO-Y4 osteocytes', 1.653),
  ('Cc1cccc(N(C)C(=S)Oc2ccc3ccccc3c2)c1 [Tolnaftate]', 'MLO-Y4 osteocytes', 1.5099),
  ('COc1ccccc1OCC(O)CN1CCN(CC(=O)Nc2c(C)cccc2C)CC1 (centres unmarked) [Ranolazine (Ranexa), Ranolazine]', 'MLO-Y4 osteocytes', 1.565),
  ('O=C(NCCO[N+](=O)[O-])c1cccnc1', 'MLO-Y4 osteocytes', 1.556),
  ('CC(C)(C)[N+]([O-])=Cc1ccc(S(=O)(=O)[O-])cc1S(=O)(=O)[O-].[Na+].[Na+]', 'MLO-Y4 osteocytes', 1.838),
  ('c1ccc(-c2ccc(C(c3ccccc3)n3ccnc3)cc2)cc1 (centres unmarked)', 'MLO-Y4 osteocytes', 1.664),
  ('CC(C[N+](C)(C)C)OC(N)=O (centres unmarked) [Bethanechol chloride]', 'MLO-Y4 osteocytes', 1.764),
  ('CCOC(=O)C1=C(C)NC(C)=C(C(=O)OC)C1c1cccc([N+](=O)[O-])c1 (centres unmarked)', 'MLO-Y4 osteocytes', 1.542),
  ('Cc1cccc(C)c1NC(=O)CN1CCCC1=O [Nefiracetam (Translon), Nefiracetam]', 'MLO-Y4 osteocytes', 1.552),
  ('CCOC(=O)[C@H](CCc1ccccc1)N[C@H]1CS[C@H](c2cccs2)CN(CC(=O)O)C1=O [Temocapril HCl]', 'MLO-Y4 osteocytes', 1.877),
  ('CC(C)C(=O)Nc1ccc([N+](=O)[O-])c(C(F)(F)F)c1 [Flutamide (Eulexin), Flutamide]', 'MLO-Y4 osteocytes', 2.035),
  ('CC1(C)Cc2c(-c3ccccc3)c(-c3ccc(Cl)cc3)c(CC(=O)O)n2C1', 'MLO-Y4 osteocytes', 1.936),
  ('O=C(C[S+]([O-])Cc1ccco1)NC/C=C\COc1cc(CN2CCCCC2)ccn1 (centres unmarked)', 'MLO-Y4 osteocytes', 1.619);
